Experiment: Phase 1 study: venous plasma pharmacokinetics
Assay type: in vivo, human
Conditions: both sexes, human, venous plasma, inhaled or intranasal, 20 mg, Inhaled 20 mg, n=6, from end of inhalation; read-out: Tmax, median (min, max) (converted)
RECORDED_ENDPOINT: Tmax (min)

O=C(NCC1CCCCN1)c1cc(OCC(F)(F)F)ccc1OCC(F)(F)F (stereo not shown) [flecainide, flecainide acetate] : 1
